Test system: OVCAR-5 ovarian
Assay: NCI tumour cell line growth inhibition, 48 h
experimental-endpoint: TGI (µM)
Give your result in µM as a bare value.

| smiles-string | TGI (µM) |
| --- | --- |
| CCOC(=O)C1=C(C)NC(C)=C(C(=O)OCC)C1c1cc(Br)c(O)c(OC)c1 | 15.9 |
| CCOC(=O)c1c(C(F)(F)F)n([O-])c2ccc(Cl)cc2[n+]1=O | 3.32 |

--- query ---
Req: Give me measured TGI, please, for this molecule: N#Cc1c(N)nc2c(N=Nc3ccccc3)c(N)nn2c1Nc1ccccc1
Resp: 57.7

----------
Quick list: TGI per entry.
Tested on: SR leukemia
Experiment: NCI tumour cell line growth inhibition, 48 h

Use the examples below as a reference point.
| compound | TGI |
| --- | --- |
| O=[N+]([O-])c1ccc(/C=N/n2c(CCc3n[nH]c(=S)n3/N=C/c3ccc([N+](=O)[O-])o3)n[nH]c2=S)o1 | 80.7 µM |
| CC(N)CN.CC(N)CN.[Cl-].[O]=[Os+2]=[O] (stereo not drawn) | > 100 µM |

Req: Give me measured TGI, please, for this compound: COc1ccc(/C=C/c2ccnc3ccccc23)cc1
Resp: 61.1 µM

Req: Give me measured TGI, please, for this compound: O=C(Nc1sccc1S(=O)(=O)c1ccc(Cl)cc1)c1ccc(Cl)cc1Cl
Resp: > 100 µM

Req: Give me measured TGI, please, for this compound: CCOP(=O)(CCN1CCN(CCCCCOc2cc3c(cc2OC)C(=O)N2CCC[C@H]2C=N3)CC1)OCC
Resp: 4.25 µM

Req: Give me measured TGI, please, for this compound: O=C(OCC(Cl)(Cl)Cl)N1CC[C@@H](C2CCCCC2)C1
Resp: 69.4 µM

Req: Give me measured TGI, please, for this compound: O=S(=O)(c1ccccc1)[C@@H]1[C@H]2C=C[C@](CS)(O2)[C@H]1S(=O)(=O)c1ccccc1
Resp: > 100 µM
